Entries and their measured pEC50 follow.
- TESTED ON: T1, human EGFRvIII protein on the cell surface (human, UniProt P00533 25-1210)
- T1 construct: whole, on cells; the cell line is named under assay; also called hEGFRvIII; U87MG-hEGFRvIII
- METHOD SUMMARY: FACS on U87MG-EGFRvIII cells
Please note pEC50 is a logarithmic value: minus log10 of concentration in mol/L. Answer with that number alone.

So for Humanized antibody h63A10A7-26 (antibody, human IgG1, V domains shown, also called VH-g4/VL-g8) VH: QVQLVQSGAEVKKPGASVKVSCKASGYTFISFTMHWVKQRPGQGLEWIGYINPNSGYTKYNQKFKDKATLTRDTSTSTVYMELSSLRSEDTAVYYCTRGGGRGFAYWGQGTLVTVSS VL: DILMTQSPSSLSASVGDRVTITCHASQDINSNIGWYQQKPGKSFKALIYHGTNLEDGVPSRFSGSGSGADFTLTISSLQPEDFATYYCVQYAQFPFTFGQGTKLEIK , the logged pEC50 turned out to be 8.75

The recorded pEC50 for Humanized antibody h63A10A7-39 (antibody, human IgG1, V domains shown, also called VH-g8/VL-g3) VH: QVQLVQSGAEVKKPGASVKVSCKASGYTFISFTMHWVKQRPGQGLEWIGYINPNSGYTKYNQKFKDRVTLTRDTSTSTVYMELSSLRSEDTAVYYCTRGGGRGFAYWGQGTLVTVSS VL: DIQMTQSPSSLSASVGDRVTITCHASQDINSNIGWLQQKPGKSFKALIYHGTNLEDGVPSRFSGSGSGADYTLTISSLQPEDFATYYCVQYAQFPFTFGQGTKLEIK is 8.39

Notebook: Humanized antibody h63A10A7-21 (antibody, human IgG1, V domains shown, also called VH-g8/VL-g4) VH: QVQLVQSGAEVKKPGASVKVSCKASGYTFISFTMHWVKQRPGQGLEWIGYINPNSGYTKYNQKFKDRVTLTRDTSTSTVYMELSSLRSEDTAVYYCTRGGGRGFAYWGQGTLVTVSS VL: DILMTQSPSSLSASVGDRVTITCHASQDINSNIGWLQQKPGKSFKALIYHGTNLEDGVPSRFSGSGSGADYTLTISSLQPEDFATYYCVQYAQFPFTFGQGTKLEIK , pEC50 read as 8.63
